The compounds listed here are annotated with their relative viability.
- System: UMC-11
- protocol.text: relative viability (nuclei count vs DMSO), 5 days (fraction); higher = more cells survive
- experimental.conditions: first compound 0.05 µM
Just the number, please.

[[record]]
compound = "Nc1ccn([C@@H]2O[C@H](CO)[C@@H](O)[C@@H]2O)c(=O)n1 [Cytarabine] + O=C(CCCCCCC(=O)Nc1ccccc1)NO [Vorinostat] (partner 1 µM)"
observed = 0.258

[[record]]
compound = "COc1cc2nccc(Oc3ccc(NC(=O)Nc4cc(C)on4)c(Cl)c3)c2cc1OC [Tivozanib] + CS(=O)(=O)CCNCc1ccc(-c2ccc3ncnc(Nc4ccc(OCc5cccc(F)c5)c(Cl)c4)c3c2)o1 [Lapatinib] (partner 2 µM)"
observed = 1.01

[[record]]
compound = "COc1cc2nccc(Oc3ccc(NC(=O)Nc4cc(C)on4)c(Cl)c3)c2cc1OC [Tivozanib] + CC1(C)CCC(c2ccc(Cl)cc2)=C(CN2CCN(c3ccc(C(=O)NS(=O)(=O)c4ccc(N[C@H](CCN5CCOCC5)CSc5ccccc5)c(S(=O)(=O)C(F)(F)F)c4)cc3)CC2)C1 [Navitoclax] (partner 0.5 µM)"
observed = 0.306


# next compound below
Record Nc1ccn([C@@H]2O[C@H](CO)[C@@H](O)[C@@H]2O)c(=O)n1 [Cytarabine] + COc1cc2c(Oc3ccc(NC(=O)C4(C(=O)Nc5ccc(F)cc5)CC4)cc3F)ccnc2cc1OCCCN1CCOCC1 [Foretinib] (partner 0.25 µM) / UMC-11, relative viability recorded as 0.45

Data provenance: the supplement of paper PMC10307832
